# tgt: T1, HLA-A0201 on the surface of T2 cells (human)
# T1 construct: surface HLA-A*02:01 is detected with an anti-HLA-A*02:01 FITC monoclonal antibody after loading with peptide
# protocol: T2 cell peptide loading assay, 100 uM peptide, anti-HLA-A*02:01 FITC, flow cytometry
Reported FI (fluorescence index) values are given for each entry in this list.
Respond with the number and no other words.

Please review the following examples before continuing.
binder	FI (fluorescence index)
FLLGNLFFL (Made by solid phase peptide synthesis, HPLC purity >90%) [mutant polypeptide's variant FLLGNLFFL (SEQ ID NO:2)]	2.17
FMLGNLFFL (Made by solid phase peptide synthesis, HPLC purity >90%) [mutant polypeptide's variant FMLGNLFFL (SEQ ID NO:4)]	2.1
FLLGNLFFV (Made by solid phase peptide synthesis, HPLC purity >90%; also called OR4K5 S67F mutant polypeptide) [mutant polypeptide FLLGNLFFV (SEQ ID NO:1)]	2.22

Per the records, this binder ( FLLGNLSFV (Made by solid phase peptide synthesis, HPLC purity >90%) [wild-type polypeptide FLLGNLSFV (SEQ ID NO:5)] ) has FI (fluorescence index) equal to 2.27

In plain terms, FMLGNLFFV (Made by solid phase peptide synthesis, HPLC purity >90%) [mutant polypeptide's variant FMLGNLFFV (SEQ ID NO:3)] has a documented FI (fluorescence index) of 2.13
